The values you see were collected from patent US7612056B2.

Molecular target: NK3 (Homo sapiens)
Sequence (P29371 1-465): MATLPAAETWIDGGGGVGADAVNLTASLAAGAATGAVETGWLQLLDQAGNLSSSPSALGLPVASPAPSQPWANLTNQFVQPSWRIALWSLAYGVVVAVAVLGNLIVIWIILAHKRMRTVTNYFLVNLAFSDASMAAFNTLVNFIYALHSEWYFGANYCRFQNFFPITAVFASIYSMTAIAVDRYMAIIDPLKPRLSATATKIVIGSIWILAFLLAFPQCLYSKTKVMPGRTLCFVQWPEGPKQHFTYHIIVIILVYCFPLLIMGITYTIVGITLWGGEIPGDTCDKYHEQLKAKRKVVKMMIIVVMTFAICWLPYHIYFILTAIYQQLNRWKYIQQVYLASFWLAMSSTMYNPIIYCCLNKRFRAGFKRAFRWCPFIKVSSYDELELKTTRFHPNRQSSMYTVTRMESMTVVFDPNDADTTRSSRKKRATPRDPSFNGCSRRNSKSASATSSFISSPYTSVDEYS
Assay: Signal transduction (ST), intracellular Ca++ (FLIPR), NK3
Assay type: cell-based
Details: antagonist, Ca++ transient peak, read-out: pIC50 NK3 (converted)
I'd be grateful if you could share measured IC50 for these entries.
One number for each entry, in µM.

Items follow; give IC50 for each.
1. O=C(c1ccccc1Cl)N1CCC2(CCN([C@H]3CCN(C(=O)c4cc(C(F)(F)F)cc(C(F)(F)F)c4)[C@H](Cc4ccccc4)C3)CC2)C1
2. O=C(C1CCOC1)N1CCC2(CCN([C@@H]3CCN(C(=O)c4cc(C(F)(F)F)cc(C(F)(F)F)c4)[C@H](Cc4ccccc4)C3)CC2)C1 (stereo partly drawn)

Data returned:
[4.27, 6.92]
